- assayed-target: glutathione S-transferase (GST)-fused full-length human Syk protein (Homo sapiens, UniProt P43405)
- Construct: (GST)-fused full-length human Syk protein; GST (glutathione S-transferase); purchased Carna Biosciences
- test-description: Syk enzyme assay
- Type: biochemical
- stated-conditions: Syk enzyme assay, Test Example 1; read-out: IC50 of Syk-inhibitory activity
Some molecules, each annotated with its measured IC50.
metric: IC50

                                    molecule         reading
 0  COCCOc1ccc2cc(Nc3nc(NC4CCCCC4N)c(F)cc3C(N)=O)ccc2n1 (stereo not drawn) [Example 002-097]         < 10 nM
 1  CCC[C@@H](Nc1nc(Nc2cncc(-c3ccc(OC)cc3)c2)c(C(N)=O)cc1F)[C@H](C)N [Example 006-285]         < 10 nM
 2  COCCOc1ncc(Nc2nc(N[C@@H]3CCCC[C@@H]3N)c(F)cc2C(N)=O)cc1C [Example 006-498]         < 10 nM
 3  COCCn1c(=O)ccc2cc(Nc3nc(NC4CCCCC4N)c(F)cc3C(N)=O)cnc21 (stereo not drawn) [Example 002-116]    50 to 100 nM
 4  C[C@H](N)[C@@H](CC1CC1)Nc1nc(Nc2ccc3c(F)nn(C4CC4)c3c2)c(C(N)=O)cc1F [Example 006-481]  100 to 1000 nM
 5  NC(=O)c1cc(F)c(NC2CCCCC2N)nc1Nc1ccnc(N2CCCC2=O)c1 (stereo not drawn) [Example 002-054]     10 to 50 nM
 6  Cn1ccc2c(Nc3nc(N[C@H](Cc4ccccc4)C(N)=O)c(F)cc3C(N)=O)ccnc21 [Example 004-044]         < 10 nM
 7  NC(=O)c1cc(F)c(NC2CCCCC2N)nc1Nc1ccnc(-c2cc(F)ccc2F)c1 (stereo not drawn) [Example 002-145]         < 10 nM
 8  COc1ncc(Nc2nc(N[C@@H]3CCCC[C@@H]3N)c(F)cc2C(N)=O)c2cc[nH]c12 [Example 004-235]         < 10 nM
 9  NC(=O)c1cc(F)c(N[C@@H]2CCCC[C@@H]2N)nc1Nc1cnc2ccccc2c1 [Example 37-4]         < 10 nM
10  COc1ccc(-c2cncc(Nc3nc(N[C@@H]4CCCC[C@@H]4N)c(F)cc3C(N)=O)c2)c(F)c1 (relative stereo) [Example 004-198]         < 10 nM
11  CCn1nc(C)c2cc(Nc3nc(N[C@H](C4CC4)[C@H](C)N)c(F)cc3C(N)=O)ccc21 [Example 006-583]         < 10 nM
12  CC[C@@H](Nc1nc(Nc2cncc(-c3cccc(OC)c3)c2)c(C(N)=O)cc1F)[C@H](C)N [Example 006-276]         < 10 nM
13  CC[C@@H](Nc1nc(Nc2cnc3cc(OC)ccc3c2)c(C(N)=O)cc1F)[C@H](C)N [Example 006-190]         < 10 nM
14  NC(=O)c1cc(F)c(NC2CCCCC2N)nc1Nc1cncc(NC(=O)c2ccc(OC(F)(F)F)cc2)c1 (stereo not drawn) [Example 027-016]  100 to 1000 nM
